- target.desc: Glycogen synthase kinase-3 beta (Homo sapiens, UniProt P49841)
- Sequence (P49841 whole entry): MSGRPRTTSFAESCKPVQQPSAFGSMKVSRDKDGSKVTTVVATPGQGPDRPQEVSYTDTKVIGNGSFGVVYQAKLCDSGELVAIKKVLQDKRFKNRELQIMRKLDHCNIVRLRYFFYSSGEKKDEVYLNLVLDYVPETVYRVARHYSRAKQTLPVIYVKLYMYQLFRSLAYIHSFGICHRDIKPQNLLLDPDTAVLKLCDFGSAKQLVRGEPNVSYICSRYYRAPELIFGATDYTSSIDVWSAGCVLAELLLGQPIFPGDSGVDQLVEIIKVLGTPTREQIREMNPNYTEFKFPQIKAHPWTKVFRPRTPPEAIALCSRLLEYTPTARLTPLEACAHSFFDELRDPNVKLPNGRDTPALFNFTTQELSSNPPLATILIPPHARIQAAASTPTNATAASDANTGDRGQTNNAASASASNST
- run.description: Inhibition of GSK3-beta in human PC3M cells by ELISA
For each of the compounds below, state its pIC50.
Just the number, please; pIC50 means minus log10 of the concentration in mol/L.

The reported pIC50 of the compound NC(c1ccc(Cl)cc1)C1CCN(c2ccnc3[nH]ccc23)CC1 (centres undefined) was 6.23

The reported pIC50 of the compound O=c1cc(N2CCOCC2)oc2c(-c3ccccc3)cccc12 was 5.09

The reported pIC50 of the compound NCC1(c2ccc(Cl)cc2)CCN(c2ncnc3[nH]ccc23)CC1 was 6.23

The reported pIC50 of the compound NCC1(Cc2ccc(Cl)cc2)CCN(c2ncnc3[nH]ccc23)CC1 was 5.85

Data provenance is BindingDB's records for doi:10.1021/jm701437d.
